# protocol_text: Induction of anti-CD3 antibodies-stimulated human T cell activation at 1 uM assessed fold increase in CD25 expression measured by ELISA assay; note: reference of the scale not given here
# Format: functional, T cell line
Reported fold change (FC) values for the following compounds.

- compound: "Cn1cnnc1CC1(c2cccc(N3Cc4c(cc(CN5CC[C@@H](CO)C(F)(F)C5)cc4C(F)(F)F)C3=O)c2)COC1"
  fold change (FC): 0.801
- compound: "Cn1cnnc1[C@H](F)[C@@](C)(F)c1cccc(N2Cc3c(cc(C4CC4)cc3C(F)(F)F)C2=O)c1 (single isomer, unassigned; 482)"
  fold change (FC): 0.601
- compound: "Cn1cnnc1CC1(c2cccc(N3Cc4c(cc(C5CCC5)cc4C(F)(F)F)C3=O)c2)COC1"
  fold change (FC): 0.801
- compound: "C[C@H](Sc1nncn1C)c1cccc(NC(=O)c2cc(C(C)(C)O)cc(C(F)(F)F)n2)c1"
  fold change (FC): 0.601
- compound: "C[C@H](Sc1nncn1C)c1cccc(NC(=O)c2cc(C(=O)N3CC[C@H](O)C3)ccn2)c1"
  fold change (FC): 0.601
- compound: "C[C@H](Cc1nncn1C)c1cc(NC2CCC2)nc(N2Cc3c(cccc3C(F)(F)F)C2=O)c1"
  fold change (FC): 0.601
- compound: "CN1CCN(c2cc3c(c(C(F)(F)F)c2)CN(c2cccc(C4(Cc5nncn5C)COC4)c2)C3=O)C(=O)C1"
  fold change (FC): 0.801

---

# protocol_text: Induction of anti-CD3/CD28 antibodies-stimulated human T cell activation at 0.3 uM assessed fold increase in IL-2 secretion measured by ELISA assay
# Assay type: functional, T cell line
measure: fold change (FC)

- molecule: "C[C@H](Cc1nncn1C)c1cccc(N2Cc3c(cc(C(=O)N4C[C@@H](O)C[C@H]4C)cc3C(F)(F)F)C2=O)c1.O=C(O)C(F)(F)F"
  value_observed: 2.51
- molecule: "CN1CCN(c2cc3c(c(C(F)(F)F)c2)CN(c2cccc(C4(Cc5nncn5C)COC4)c2)C3=O)C(=O)C1"
  value_observed: 1.01
- molecule: "CC1CN(c2cc3c(c(C(F)(F)F)c2)CN(c2cccc(C4(Cc5nncn5C)COC4)c2)C3=O)C1C (stereo not drawn)"
  value_observed: 1.01
- molecule: "C[C@H](Sc1nncn1C)c1cccc(NC(=O)c2cccc(C3CC3)n2)c1"
  value_observed: 1.01
- molecule: "C[C@H](Sc1nncn1C)c1cc(F)cc(N2Cc3c(cccc3C(F)(F)F)C2=O)c1"
  value_observed: "<=1"
- molecule: "Cn1cnnc1CC1(c2cccc(N3Cc4c(cc(N5CC(C(F)F)C5)nc4C4CC4)C3=O)c2)COC1"
  value_observed: 2.51
- molecule: "Cn1cnnc1CC(C)(C)c1cccc(NC(=O)c2cccc(C(F)(F)F)n2)c1"
  value_observed: 1.01
- molecule: "Cn1cnnc1CC1(c2cccc(N3Cc4c(cc(CN5CCC(C)(F)C5)cc4C(F)(F)F)C3=O)c2)COC1 (stereo not drawn)"
  value_observed: ">=7.5"

---

# protocol_text: Induction of anti-CD3 antibodies-stimulated human T cell activation at 1 uM assessed fold increase in CD25 expression measured by ELISA assay; note: reference of the scale not given here
# Assay type: functional, T cell line
measure: fold change (FC)

- smiles: "CC(C)Nc1cc([C@H](C)Cc2nncn2C)cc(N2Cc3c(cccc3C(F)(F)F)C2=O)n1"
  value_observed: 0.801
- smiles: "Cn1cnnc1CC1(c2cccc(N3Cc4c(cc(CN5CCCC5=O)cc4C(F)(F)F)C3=O)c2)COC1"
  value_observed: ">=1.001"
- smiles: "Cn1cnnc1CC1(c2cccc(N3Cc4c(cc(CN5CC[C@H](c6ccccc6)C5)cc4C(F)(F)F)C3=O)c2)COC1"
  value_observed: ">=1.001"
- smiles: "Cc1cc(C(=O)Nc2cccc(C(C)(C)Cc3nncn3C)c2)nc(C2CC2)n1"
  value_observed: 0.801
- smiles: "C[C@H](Cc1nncn1C)c1cccc(N2Cc3c(ccnc3C(F)(F)F)C2=O)c1"
  value_observed: 0.801
- smiles: "C[C@H](Cc1nncn1C)c1cccc(NC(=O)c2cc3cccn3cn2)c1"
  value_observed: 0.601
- smiles: "Cn1cnnc1CC(C)(C)c1cccc(N2Cc3c(cc(C4CC4)cc3C(F)(F)F)C2=O)c1"
  value_observed: 0.801
- smiles: "Cc1cccc2nc(C(=O)Nc3cccc([C@H](C)Sc4nncn4C)c3)ccc12"
  value_observed: 0.801
- smiles: "CN1CC2CCC(C1)N2c1cc2c(c(C(F)(F)F)c1)CN(c1cccc([C@@](C)(F)C(F)(F)c3nncn3C)c1)C2=O"
  value_observed: ">=1.001"

---

# protocol_text: Induction of anti-CD3 antibodies-stimulated human T cell activation at 10 uM assessed fold increase in GM-CSF secretion measured by ELISA assay; note: reference of the scale not given here
# Format: functional, T cell line

- smiles: "C[C@H](Cc1nncn1C)c1cccc(N2Cc3c(cc(CN4CC[C@H](F)C4)cc3C(F)(F)F)C2=O)c1"
  fold change (FC): ">4"
- smiles: "C[C@H](Cc1nncn1C)c1cccc(N2Cc3c(cccc3C(F)(F)F)C2=O)c1.Cl"
  fold change (FC): "<=1.5"
- smiles: "C[C@H](Cc1nncn1C)c1cccc(NC(=O)c2nc(C(F)(F)F)c[nH]2)c1"
  fold change (FC): 2.01
- smiles: "Cc1cc2c(c(C3CC3)n1)CN(c1cccc([C@H](C)Cc3nncn3C)c1)C2=O"
  fold change (FC): 1.51
- smiles: "Cc1cc(C(=O)Nc2cccc([C@H](C)Cc3nncn3C)c2)nc(C2CC2)n1"
  fold change (FC): 2.01
- smiles: "C[C@H](Cc1nncn1C)c1cccc(NC(=O)c2n[nH]c3c2CCC3)c1"
  fold change (FC): 1.51
- smiles: "COC1CN(Cc2cc3c(c(C(F)(F)F)c2)CN(c2cccc([C@@](C)(F)C(F)(F)c4nncn4C)c2)C3=O)C1"
  fold change (FC): 2.01
- smiles: "C[C@H](Cc1nncn1C)c1cccc(NC(=O)c2cccc(CCO)n2)c1"
  fold change (FC): 1.51

---

# protocol_text: Induction of anti-CD3 antibodies-stimulated human T cell activation at 1.11 uM assessed fold increase in IFN-gamma secretion measured by ELISA assay; note: reference of the scale not given here
# Assay type: functional, T cell line

- smiles: "Cn1cnnc1CC1(c2cccc(NC(=O)c3nc4c(C(F)(F)F)cccc4[nH]3)c2)COC1"
  fold change (FC): "<=2"
- smiles: "C[C@H](Cc1nncn1C)c1cccc(N2Cc3c(cc(CN4CC(O)C4)cc3C(F)(F)F)C2=O)c1"
  fold change (FC): "<=2"
- smiles: "Cc1cc(C(=O)Nc2cccc(C3(Cc4nncn4C)COC3)c2)nc(C2CC2)n1"
  fold change (FC): 2.01
- smiles: "C[C@H](Cc1nncn1C)c1cccc(NC(=O)c2nc(C(F)(F)F)c[nH]2)c1"
  fold change (FC): "<=2"
- smiles: "C[C@H](Cc1nncn1C)c1cccc(N2Cc3c(cccc3C(F)(F)F)C2=O)c1.Cl"
  fold change (FC): "<=2"
- smiles: "C[C@H](Sc1nncn1C)c1cccc(NC(=O)c2cc(C(=O)N3CC[C@H](O)C3)ccn2)c1"
  fold change (FC): 3.01
- smiles: "C[C@H](Cc1nncn1C)c1cccc(NC(=O)c2cc3cc(N4CCNCC4)ccc3cn2)c1.Cl"
  fold change (FC): "<=2"
- smiles: "C[C@H](Sc1nncn1C)c1cccc(NC(=O)c2cccc(C(F)(F)F)n2)c1"
  fold change (FC): "<=2"
- smiles: "Cn1cnnc1C(F)(F)[C@](C)(F)c1cccc(N2Cc3c(cc(CN4CC[C@@H](C#N)C4)cc3C(F)(F)F)C2=O)c1"
  fold change (FC): 2.01

---

# protocol_text: Induction of anti-CD3 antibodies-stimulated human T cell activation at 1 uM assessed fold increase in IL-2 secretion measured by ELISA assay; note: reference of the scale not given here
# Type: functional, T cell line

- molecule: "Cn1cnnc1CC1(c2cccc(N3Cc4c(cc(CN5CCOC6(CCC6)C5)cc4C(F)(F)F)C3=O)c2)COC1"
  fold change (FC): ">=0.201"
- molecule: "Cc1cc(C(=O)Nc2cccc(C3(Cc4nncn4C)COC3)c2)n2nccc2n1"
  fold change (FC): "<=0.05"
- molecule: "Cn1cnnc1CC1(c2cccc(NC(=O)c3cc(CN4CCC5(CC5)C4)cc(C4CC4)n3)c2)COC1"
  fold change (FC): ">=0.201"
- molecule: "C[C@H](Cc1nncn1C)c1cccc(N2Cc3c(cc(CN4C[C@@H](F)[C@@H](O)C4)cc3C(F)(F)F)C2=O)c1"
  fold change (FC): 0.151
- molecule: "Cn1cnnc1CC1(c2cccc(N3Cc4c(cc(OC5CC5)cc4C(F)(F)F)C3=O)c2)COC1"
  fold change (FC): 0.151
- molecule: "CCOc1cc(N2Cc3c(cc([C@@H](C)N4CC[C@H](F)C4)cc3C(F)(F)F)C2=O)cc(C2(Cc3nncn3C)COC2)c1"
  fold change (FC): ">=0.201"
- molecule: "Cn1cnnc1CC(C)(C)c1cccc(NC(=O)c2cccc(C(F)(F)F)n2)c1"
  fold change (FC): ">=0.201"
- molecule: "C[C@H](Cc1nncn1C)c1cccc(N2Cc3c(cc(CN4C[C@@H](O)[C@H](F)C4)cc3C(F)(F)F)C2=O)c1"
  fold change (FC): ">=0.201"
- molecule: "Cn1cnnc1[C@@H]1CC[C@@H]1c1cccc(N2Cc3c(cccc3C(F)(F)F)C2=O)c1"
  fold change (FC): 0.101
- molecule: "COC1CCN(Cc2cc3c(c(C(F)(F)F)c2)CN(c2cccc(C4(Cc5nncn5C)COC4)c2)C3=O)CC1"
  fold change (FC): ">=0.201"
- molecule: "C[C@H](Sc1nncn1C)c1cccc(NC(=O)c2cc3cc(OCC(=O)NCCN)ccc3cn2)c1.Cl"
  fold change (FC): "<=0.05"
- molecule: "Cc1cc(C(=O)Nc2cccc([C@H](C)Cc3nncn3C)c2)nc(C2CC2)n1"
  fold change (FC): ">=0.201"
- molecule: "C[C@H](c1cc2c(c(C(F)(F)F)c1)CN(c1cccc(C3(Cc4nncn4C)COC3)c1)C2=O)N1CC[C@H](F)C1"
  fold change (FC): ">=0.201"
- molecule: "COC1CCCN(Cc2cc3c(c(C(F)(F)F)c2)CN(c2cccc(C4(Cc5nncn5C)COC4)c2)C3=O)C1 (stereo not drawn)"
  fold change (FC): ">=0.201"
- molecule: "Cc1n[nH]c(C)c1-c1cc2c(c(C(F)(F)F)c1)CN(c1cccc(C3(Cc4nncn4C)COC3)c1)C2=O"
  fold change (FC): 0.101
- molecule: "C[C@H](Sc1nncn1C)c1ccnc(NC(=O)c2cc(Cl)cc(C(F)(F)F)n2)c1"
  fold change (FC): "<=0.05"
- molecule: "Cn1cnnc1C(F)(F)[C@](C)(F)c1cccc(N2Cc3c(cc(CN4CC[C@H](C#N)C4)cc3C(F)(F)F)C2=O)c1"
  fold change (FC): ">=0.201"
- molecule: "CC1OCC1Oc1cc([C@H](C)Cc2nncn2C)cc(N2Cc3c(cccc3C(F)(F)F)C2=O)n1 (stereo partly drawn)"
  fold change (FC): 0.051
- molecule: "C[C@@H](c1cc2c(c(C(F)(F)F)c1)CN(c1cccc(C3(Cc4nncn4C)COC3)c1)C2=O)N1CC(F)C1"
  fold change (FC): 0.151
- molecule: "Cn1cnnc1CC1(c2cccc(N3Cc4c(ccc(F)c4C4CC4)C3=O)c2)COC1"
  fold change (FC): 0.051
- molecule: "Cn1cnnc1CC1(c2cccc(N3Cc4c(cc(N5CCNC6(CC6)C5)cc4C(F)(F)F)C3=O)c2)COC1"
  fold change (FC): 0.101
- molecule: "Cn1cnnc1CC1(c2cccc(N3Cc4c(cc(N5CCOC5=O)cc4C(F)(F)F)C3=O)c2)COC1"
  fold change (FC): "<=0.05"
- molecule: "C[C@H](Cc1nncn1C)c1cccc(NC(=O)c2cncc(C(F)(F)F)n2)c1"
  fold change (FC): 0.051
- molecule: "Cn1cnnc1CC1(c2cccc(N3Cc4c(cc(CN5Cc6ccccc6C5)cc4C(F)(F)F)C3=O)c2)COC1"
  fold change (FC): ">=0.201"
- molecule: "Cn1cnnc1C(F)(F)[C@](C)(F)c1cccc(N2Cc3c(cc(CN4CC(C(F)F)C4)cc3C(F)(F)F)C2=O)c1"
  fold change (FC): ">=0.201"
- molecule: "Cn1cnnc1[C@H](F)C1(c2cccc(N3Cc4c(cc(CN5CCC(F)CC5)cc4C(F)(F)F)C3=O)c2)COC1"
  fold change (FC): ">=0.201"
- molecule: "C[C@H](Cc1nncn1C)c1cc(NCCO)nc(N2Cc3c(cccc3C(F)(F)F)C2=O)c1"
  fold change (FC): 0.051
- molecule: "Cc1cc(C(=O)Nc2cccc([C@H](C)Sc3nncn3C)c2)nc2ccccc12"
  fold change (FC): 0.051
- molecule: "C[C@@H](c1cc2c(c(C(F)(F)F)c1)CN(c1cccc(C3(Cc4nncn4C)COC3)c1)C2=O)N1CC2CC2C1 (stereo partly drawn)"
  fold change (FC): ">=0.201"
- molecule: "Cn1cnnc1C(F)(F)[C@@](C)(F)c1cccc(N2Cc3c(cc(CN4CC[C@H](F)C4)cc3C(F)(F)F)C2=O)c1"
  fold change (FC): 0.051
- molecule: "Cn1cnnc1[C@@H]1C[C@@H]1c1cccc(N2Cc3c(cc(CN4CC[C@H](F)C4)cc3C(F)(F)F)C2=O)c1"
  fold change (FC): ">=0.201"
- molecule: "Cn1cnnc1CC1(c2cccc(N3Cc4c(cc(N5CC(C(F)F)C5)nc4C4CC4)C3=O)c2)COC1"
  fold change (FC): 0.101
- molecule: "CC(O)c1cc2c(c(C(F)(F)F)c1)CN(c1cccc([C@@](C)(F)C(F)(F)c3nncn3C)c1)C2=O (stereo partly drawn)"
  fold change (FC): 0.051
